experiment: Biodisposition of JV-DE1 and JV-MD2 delivered via NIODP (periorbital skin) in non-human primates; format: in vivo, cynomolgus monkeys; settings: cynomolgus, cynomolgus monkey, plasma, topical; JV-MD2 21.5% w/w; monkey; NIODP periorbital skin OS; 6568 μg/eye; 0.5 h; pre-dose baseline 2; read-out: Drug in plasma

| Molecule | concentration at 0.5 h / ng/mL |
| --- | --- |
| CC/C=C\C/C=C\C/C=C\C/C=C\C/C=C\C/C=C\CCC(=O)O [JV-MD2, cis-4,7,10,13,16,19-docosahexaenoic acid] | 2000 |

====

experiment: Biodisposition of JV-DE1 and JV-MD2 delivered via NIODP (periorbital skin) in non-human primates; type: in vivo, cynomolgus monkeys; settings: cynomolgus, cynomolgus monkey, cornea, topical or ocular, 165.3 ug; JV-DE1; monkey; NIODP about 165.3 µg/eye OD; read-out: Cmax in cornea

| Molecule | Units symbol | Cmax |
| --- | --- | --- |
| CC(C)Oc1ccc(Cc2ccc(NC3=NCCN3)cc2)cc1 [JV-DE1] | ng/g | 9300 |

====

experiment: Biodisposition of JV-DE1 and JV-MD2 delivered via NIODP (periorbital skin) in non-human primates; format: in vivo, cynomolgus monkeys; conditions: cynomolgus, cynomolgus monkey, cornea of the dosed left eye (OS), topical; JV-MD2; monkey; NIODP OS; 6768 μg/eye; 3 h; endogenous BLQ; read-out: Drug in OS Tissues, Cornea

| Compound | concentration at 3 h [ng/g] |
| --- | --- |
| CC/C=C\C/C=C\C/C=C\C/C=C\C/C=C\C/C=C\CCC(=O)O [JV-MD2, cis-4,7,10,13,16,19-docosahexaenoic acid] | 22000 |

====

assay: Biodisposition of JV-DE1 and JV-MD2 delivered via NIODP (periorbital skin) in non-human primates; format: in vivo, cynomolgus monkeys; settings: cynomolgus, cynomolgus monkey, cornea, topical; JV-DE1; monkey; NIODP OD; 160.6 μg/eye; 3 h; read-out: Drug in OD Tissues, Cornea

| Entry smiles | concentration at 3 h (ng/g) |
| --- | --- |
| CC(C)Oc1ccc(Cc2ccc(NC3=NCCN3)cc2)cc1 | 16700 |

====

experiment: Biodisposition of JV-DE1 and JV-MD2 delivered via NIODP (periorbital skin) in non-human primates; type: in vivo, cynomolgus monkeys; conditions: cynomolgus, cynomolgus monkey, upper eyelid (periorbital skin) of the dosed left eye (OS), topical; JV-MD2; monkey; NIODP OS; 7018 μg/eye; 6 h; endogenous BLQ; read-out: Drug in OS Tissues, Eyelid/periorbital skin
Measured quantity: concentration at 6 h (ng/g)

| Molecule | Endpoint value |
| --- | --- |
| CC/C=C\C/C=C\C/C=C\C/C=C\C/C=C\C/C=C\CCC(=O)O [JV-MD2, cis-4,7,10,13,16,19-docosahexaenoic acid] | 11000 |

====

assay: Biodisposition of JV-DE1 and JV-MD2 delivered via NIODP (periorbital skin) in non-human primates; type: in vivo, cynomolgus monkeys; conditions: cynomolgus, cynomolgus monkey, retina, topical; JV-MD2; monkey; NIODP OS; 6768 μg/eye; 3 h; endogenous DHA 17 µg/g; read-out: Drug in OS Tissues, Retina

| Compound | concentration at 3 h, ng/g |
| --- | --- |
| CC/C=C\C/C=C\C/C=C\C/C=C\C/C=C\C/C=C\CCC(=O)O [JV-MD2, cis-4,7,10,13,16,19-docosahexaenoic acid] | 67000 |
